Would you mind telling me the reported pIC50 of each entry?
# assay_system: SIK2 (QIK) (SEQ ID NO: 11) (Homo sapiens, UniProt Q9H0K1)
# Sequence (Q9H0K1 whole entry): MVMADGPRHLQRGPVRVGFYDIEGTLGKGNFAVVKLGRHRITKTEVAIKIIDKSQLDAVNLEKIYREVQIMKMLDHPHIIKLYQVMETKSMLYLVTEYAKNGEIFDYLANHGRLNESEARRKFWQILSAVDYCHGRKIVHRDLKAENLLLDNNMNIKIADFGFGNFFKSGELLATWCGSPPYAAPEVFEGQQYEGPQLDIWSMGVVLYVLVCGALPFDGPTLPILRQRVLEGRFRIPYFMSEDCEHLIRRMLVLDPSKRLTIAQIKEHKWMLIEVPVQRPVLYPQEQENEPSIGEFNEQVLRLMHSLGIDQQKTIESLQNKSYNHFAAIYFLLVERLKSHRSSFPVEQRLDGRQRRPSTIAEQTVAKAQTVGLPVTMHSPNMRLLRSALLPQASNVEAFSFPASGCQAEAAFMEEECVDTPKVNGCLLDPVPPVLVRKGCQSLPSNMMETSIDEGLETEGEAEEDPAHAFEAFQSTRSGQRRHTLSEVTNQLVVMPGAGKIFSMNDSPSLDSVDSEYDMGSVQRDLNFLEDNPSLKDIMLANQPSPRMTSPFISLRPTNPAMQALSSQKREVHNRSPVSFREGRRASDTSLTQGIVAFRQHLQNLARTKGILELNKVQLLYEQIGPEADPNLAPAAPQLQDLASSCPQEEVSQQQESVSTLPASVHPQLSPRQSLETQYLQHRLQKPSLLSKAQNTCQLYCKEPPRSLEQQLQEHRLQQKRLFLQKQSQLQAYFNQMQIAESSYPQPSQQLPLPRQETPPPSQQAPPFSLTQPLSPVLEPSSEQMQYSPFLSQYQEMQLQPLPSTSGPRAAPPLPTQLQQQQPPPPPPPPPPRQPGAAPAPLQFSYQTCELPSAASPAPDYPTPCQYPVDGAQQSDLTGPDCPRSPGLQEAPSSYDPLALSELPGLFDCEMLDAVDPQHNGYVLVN
# test_summary: SIK2 kinase assay (radiometric, 10 μM ATP)
# Assay type: biochemical
# experimental_conditions: compounds purchased from vendor library, read-out: SIK2 IC50
pIC50: −log10 of the molar value.

Exam item: # input molecule: `COc1cc(-c2n[nH]c3nccc(-c4cccc(C(N)=O)c4)c23)cc(OC)c1OC` ; wanted: its pIC50
Marked response: < 6.00

Below are some molecules; for each one, tell me its pIC50.
1. COc1cccc(-c2ccnc3[nH]nc(-c4cccc(C(F)(F)F)c4)c23)c1
2. OCCNC(O)c1cccc(-c2n[nH]c3nccc(-c4cccc(C(F)(F)F)c4)c23)c1 (stereo not drawn)

Marked response:
< 6.00
< 6.00

====

# test_summary: Rat bioavailability and pharmacokinetics
# Format: in vivo, male Sprague Dawley rats
# experimental_conditions: male, Sprague Dawley, plasma; IV 5 mg/kg, rat; read-out: Cmax (concentration at time zero)
result_type: Cmax (ng/mL)
One number for each entry, in ng/mL.

Exam item: Give its Cmax value. Item: `Fc1cccc(-c2c[nH]c3ncc(-c4ccsc4)cc23)c1Cl`
Marked response: 3850

====

# assay_system: SIK2 (QIK) (SEQ ID NO: 11) (Homo sapiens, UniProt Q9H0K1)
# test_summary: SIK2 kinase assay (radiometric, 10 μM ATP)
# Type: biochemical
# experimental_conditions: read-out: SIK2 (QIK) (SEQ ID NO: 11) kinase inhibition result
Would you mind telling me the reported IC50 of each entry?

Exam item: Requested field: IC50. Item: `Fc1ccc(-c2c[nH]c3ncc(-c4ccsc4)cc23)cc1Cl`
Marked response: > 1000 nM

Exam item: Please answer likewise for `COc1c(F)cc(F)cc1-c1c[nH]c2ncc(-n3cc(N4CCN(CCO)CC4)cn3)cc12`
Marked response: < 100 nM

Exam item: Another compound to look at: `COc1c(F)cccc1-c1c[nH]c2ncc(-c3cccc(S(=O)(=O)N(C)C)c3)cc12`
Marked response: < 100 nM

Exam item: What about `Clc1ccccc1-c1c[nH]c2ncc(-c3ccsc3)cc12` ?
Marked response: > 1000 nM

Exam item: Check `FC1(F)Oc2ccc(-c3c[nH]c4ncc(-c5cnn(C6CCNCC6)c5)cc34)cc2O1` too.
Marked response: < 100 nM

Exam item: Try the compound `COc1c(F)cccc1-c1c[nH]c2ncc(-c3csc(N4CCOCC4)n3)cc12`
Marked response: < 100 nM

Exam item: Now the same for `FC1(F)Oc2cccc(-c3c[nH]c4ncc(-c5ccc(CN6CCCCC6)s5)cc34)c2O1`
Marked response: < 100 nM

More entries:
Exam item: Reported IC50 for `COc1c(F)cc(F)cc1-c1c[nH]c2ncc(-c3cnc(N4CCOCC4)s3)cc12` : what is it?
Marked response: < 100 nM

====

# test_summary: Rat bioavailability and pharmacokinetics
# Assay type: in vivo, male Sprague Dawley rats
# experimental_conditions: male, Sprague Dawley, plasma; IV 5 mg/kg, rat
result_type: AUC(0-inf) (ng·h/mL)
Give bare numbers, in ng·h/mL.

Exam item: Name the reported AUC(0-inf) value associated with the compound `Fc1cccc(-c2c[nH]c3ncc(-c4ccsc4)cc23)c1Cl`
Marked response: 2620

====

# assay_system: SIK2 (QIK) (SEQ ID NO: 11) (Homo sapiens, UniProt Q9H0K1)
# test_summary: SIK2 kinase assay (radiometric, 10 μM ATP)
# Type: biochemical
# experimental_conditions: read-out: SIK2 (QIK) (SEQ ID NO: 11) kinase inhibition result
For each entry below, report its IC50 value.

Known results for compounds:
Exam item: Query (compound): `O=S(=O)(c1ccc(-c2c[nH]c3nccc(-c4ccsc4)c23)cc1)N1CCC1` ; field requested: IC50
Marked response: > 1000 nM

Exam item: Would you mind doing `FC1(F)Oc2cccc(-c3c[nH]c4ncc(-c5ccc(CN6CCCC6)s5)cc34)c2O1` as well?
Marked response: < 100 nM

Exam item: Another compound to check: `CCS(=O)(=O)N1CCC(n2cc(-c3cnc4[nH]cc(-c5ccc6c(c5)OC(F)(F)O6)c4c3)cn2)CC1`
Marked response: > 1000 nM

Exam item: Try `COc1ccccc1-c1c[nH]c2ncc(-c3ccsc3)cc12` next.
Marked response: > 100 nM

Exam item: Can you check `Cc1ccc(-c2ccnc3[nH]cc(-c4cccc(F)c4Cl)c23)o1` next?
Marked response: > 100 nM

Please give IC50, item by item, for the list that follows.
1. COc1ncccc1-c1c[nH]c2nccc(-c3ccsc3)c12
2. Oc1c(F)cccc1-c1c[nH]c2ncc(-c3ccc(CN4CCOCC4)s3)cc12
3. Cc1ccc(-c2cnc3[nH]cc(-c4cccc(F)c4O)c3c2)o1
4. COc1cc(F)ccc1-c1c[nH]c2nccc(-c3ccsc3)c12
5. COc1c(F)cc(F)cc1-c1c[nH]c2ncc(-n3cc(N4CCN(S(C)(=O)=O)CC4)cn3)cc12
6. FC1(F)CN(c2c[nH]c3ncc(-c4ccsc4)cc23)C1

Marked response:
1: > 100 nM; 2: < 100 nM; 3: < 100 nM; 4: > 100 nM; 5: < 100 nM; 6: < 100 nM

The origin of these recorded values is patent US9890153B2.
